Source listed as paper PMC13313556.

For each record, write down the corresponding Papp B→A at 120 min, 5 μM.
# TARGET OR TEST SYSTEM: P-glycoprotein (MDR1) (Homo sapiens, UniProt P08183)
# Construct: host or cells: MDR1-MDCK cell monolayers
# Sequence (P08183 whole entry): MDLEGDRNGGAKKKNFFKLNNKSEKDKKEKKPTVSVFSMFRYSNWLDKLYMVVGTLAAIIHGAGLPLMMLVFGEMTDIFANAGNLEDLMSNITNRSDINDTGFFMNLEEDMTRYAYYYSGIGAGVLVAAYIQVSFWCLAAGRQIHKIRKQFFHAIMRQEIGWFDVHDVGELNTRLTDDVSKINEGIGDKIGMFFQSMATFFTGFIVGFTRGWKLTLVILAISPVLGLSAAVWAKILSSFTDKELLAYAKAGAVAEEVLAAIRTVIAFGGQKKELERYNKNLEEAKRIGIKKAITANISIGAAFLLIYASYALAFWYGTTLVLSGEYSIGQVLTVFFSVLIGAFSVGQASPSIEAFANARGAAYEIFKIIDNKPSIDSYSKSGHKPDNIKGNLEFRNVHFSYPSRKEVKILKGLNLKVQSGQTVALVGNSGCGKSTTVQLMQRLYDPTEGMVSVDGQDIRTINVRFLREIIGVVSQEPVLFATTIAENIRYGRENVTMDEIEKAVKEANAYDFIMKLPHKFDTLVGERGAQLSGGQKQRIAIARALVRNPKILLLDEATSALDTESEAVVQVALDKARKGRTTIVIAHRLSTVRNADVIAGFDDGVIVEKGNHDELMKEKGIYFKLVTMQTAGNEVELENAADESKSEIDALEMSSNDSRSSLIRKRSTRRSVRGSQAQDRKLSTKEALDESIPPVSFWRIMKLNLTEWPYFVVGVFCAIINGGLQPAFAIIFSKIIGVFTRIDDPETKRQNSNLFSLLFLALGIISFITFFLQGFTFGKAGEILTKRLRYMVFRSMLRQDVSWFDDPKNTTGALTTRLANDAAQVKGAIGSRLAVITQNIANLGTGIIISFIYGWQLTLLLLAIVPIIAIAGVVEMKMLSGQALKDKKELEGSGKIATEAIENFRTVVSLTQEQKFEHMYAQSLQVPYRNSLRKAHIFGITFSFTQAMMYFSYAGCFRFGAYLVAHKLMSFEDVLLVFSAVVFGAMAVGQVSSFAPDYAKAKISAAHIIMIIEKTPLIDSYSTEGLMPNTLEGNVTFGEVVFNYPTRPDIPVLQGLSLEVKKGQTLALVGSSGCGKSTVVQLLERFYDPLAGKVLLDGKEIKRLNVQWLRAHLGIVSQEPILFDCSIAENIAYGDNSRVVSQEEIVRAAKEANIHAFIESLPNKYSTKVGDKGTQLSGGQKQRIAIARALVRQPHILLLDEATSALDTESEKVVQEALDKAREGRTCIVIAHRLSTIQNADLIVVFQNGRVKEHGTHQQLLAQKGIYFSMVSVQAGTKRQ
# EXPERIMENT NOTES: MDR1-MDCK permeability and efflux
# Format: in vitro ADME
# ASSAY CONDITIONS: dog, MDCK-MDR1, pH 7.4, 5 μM, 120 minutes; read-out: Papp B-to-A, R1
Give bare numbers, in ×10⁻⁶ cm/s.

COc1cc(CN2CCc3c(cc(Cn4ccn(C)c4=N)cc3-c3ccc(F)cc3C)C2=O)cc(OC)c1 [C16, reference compound] ... 1.49

Please examine the following record next.
Supply Papp B→A at 120 min, 5 μM value. Item: COc1cc(Cn2nnc3c2CCc2c-3cc(Cn3ccnc3C)cc2C2CC2)ccc1F [C3TD343] 40.2

----------
# System: DI318 CSCs
# EXPERIMENT NOTES: 7-day CTG viability assay (GI50, cross-titrations, irradiation) in DI318
# Type: cell-based
# ASSAY CONDITIONS: Homo sapiens, DI318 + RAD (2 Gy); read-out: log(GI50) (converted)
For each record, write down the corresponding GI50.
Numbers only, in nM.

Solved cases below.
COc1cc(CN2CCc3c(cc(Cn4ccn(C)c4=N)cc3-c3ccc(F)cc3C)C2=O)cc(OC)c1 [C16, reference compound] ... 794
COc1cc(Cn2nnc3c2CCc2c-3cc(Cn3ccnc3C)cc2C2CC2)ccc1F ... 6310
CCOc1cc(C(C)(C)C)ccc1C1=N[C@@](C)(c2ccc(Cl)cc2)[C@@](C)(c2ccc(Cl)cc2)N1C(=O)N1CCN(CCCS(C)(=O)=O)CC1 ... 5.01

Please examine the following record next.
Supply GI50 value. Item: COc1cc(Cn2nnc3c2CCc2c(-c4cn(C)nc4C(F)(F)F)cc(Cn4ccnc4C)cc2-3)cc(OC)c1 631

----------
# EXPERIMENT NOTES: Microsomal intrinsic clearance, human
# Format: in vitro ADME
# ASSAY CONDITIONS: pooled liver microsomes; human microsomes
PARAMETER MEASURED: CLint scaled at 1 µM (mL/min/kg)
Numbers only, in mL/min/kg.

Solved cases below.
COc1cc(Cn2nnc3c2CCc2c(-c4ccc(F)cc4C)cc(Cn4ccn(C)c4=N)cc2-3)cc(OC)c1 ... 233
COc1cc(Cn2nnc3c2CCc2c(-c4cn(C)nc4C(F)(F)F)cc(Cn4ccnc4C)cc2-3)cc(OC)c1 ... 1200
COc1cc(Cn2nnc3c2CCc2c-3cc(Cn3ccnc3C)cc2C2CC2)ccc1F ... 710

Please examine the following record next.
Supply CLint scaled at 1 µM value. Item: COc1cc(CN2CCc3c(cc(Cn4ccn(C)c4=N)cc3-c3ccc(F)cc3C)C2=O)cc(OC)c1 [C16, reference compound] 155

----------
# EXPERIMENT NOTES: Plasma protein binding (equilibrium dialysis), human
# Type: in vitro ADME
# ASSAY CONDITIONS: summary of Table 1, read-out: plasma protein binding
PARAMETER MEASURED: fraction unbound at […]

COc1cc(CN2CCc3c(cc(Cn4ccn(C)c4=N)cc3-c3ccc(F)cc3C)C2=O)cc(OC)c1 [C16, reference compound] ... < 0.01

Supply fraction unbound at […] value. Item: COc1cc(Cn2nnc3c2CCc2c(-c4ccc(F)cc4C)cc(Cn4ccn(C)c4=N)cc2-3)cc(OC)c1 < 0.01

----------
# EXPERIMENT NOTES: In vivo intraperitoneal plasma:brain level (PBL) studies
# Set-up: species or system mice
# ASSAY CONDITIONS: male, CD-1, mouse, brain, ip, 10 mg/kg, C16 10 mg/kg IP, male mice; read-out: brain/plasma ratio P:B (AUC)
# Protocol: In Vivo Intraperitoneal Plasma:Brain Level (PBL) Studies Core (RMPC) at the Vanderbilt University Medical Center (VUMC) Metabolic Physiology Shared Resource Core (MPSR). The studies were performed according to guidelines […] results were validated using a calibration curve to lower limit of quantification of 2 ng/mL for parent analyte with tolbutamide as an internal standard. […]
PARAMETER MEASURED: Kp

Supply Kp value. Item: COc1cc(CN2CCc3c(cc(Cn4ccn(C)c4=N)cc3-c3ccc(F)cc3C)C2=O)cc(OC)c1 [C16, reference compound] < 0.05

----------
For each record, write down the corresponding fraction unbound at […].
# EXPERIMENT NOTES: Plasma protein binding (equilibrium dialysis), human
# Type: in vitro ADME
# ASSAY CONDITIONS: human plasma, read-out: PPB % fu (h)

COc1cc(Cn2nnc3c2CCc2c(-c4ccc(F)cc4C)cc(Cn4ccn(C)c4=N)cc2-3)cc(OC)c1 ... 0.006

Below are 3 molecules. Give each one its fraction unbound at […].
1. COc1cc(Cn2nnc3c2CCc2c(-c4cn(C)nc4C(F)(F)F)cc(Cn4ccnc4C)cc2-3)cc(OC)c1
2. COc1cc(CN2CCc3c(cc(Cn4ccn(C)c4=N)cc3-c3ccc(F)cc3C)C2=O)cc(OC)c1 [C16, reference compound]
3. COc1cc(Cn2nnc3c2CCc2c-3cc(Cn3ccnc3C)cc2C2CC2)ccc1F

0.016
0.003
0.007

----------
# EXPERIMENT NOTES: MDCK passive permeability
# Format: in vitro ADME, canine
# ASSAY CONDITIONS: dog, MDCK, favorable permeability
For each record, write down the corresponding Papp A→B.

COc1cc(Cn2nnc3c2CCc2c-3cc(Cn3ccnc3C)cc2C2CC2)ccc1F ... > 2 ×10⁻⁶ cm/s

Supply Papp A→B value. Item: COc1cc(Cn2nnc3c2CCc2c(-c4cn(C)nc4C(F)(F)F)cc(Cn4ccnc4C)cc2-3)cc(OC)c1 > 2 ×10⁻⁶ cm/s

----------
For each record, write down the corresponding recovery at 120 min, 5 μM.
# TARGET OR TEST SYSTEM: P-glycoprotein (MDR1) (Homo sapiens)
# Construct: host or cells: MDR1-MDCK cell monolayers
# EXPERIMENT NOTES: MDR1-MDCK permeability and efflux
# Type: in vitro ADME
# ASSAY CONDITIONS: dog, MDCK-MDR1, pH 7.4, 5 μM, 120 minutes; read-out: Recovery, B-to-A
# Procedure: Test Direction Recovery Papp (10-6 cm/s) Efflux Brain Article (%) R1 R2 AVG Ratio Penetration Supplemental Figure 4. Blood-brain barrier (BBB) penetration potential using MDR1-MDCK cell monolayers. All P-glycoprotein (MDR1) permeability and efflux studies were conducted at Absorption Systems (parent company Pharmaron). […] The flux of lucifer yellow was also measured post-experimentally for each monolayer to ensure no damage was inflicted to the cell monolayers during the flux period. […]
Answers are plain numbers, in %.

COc1cc(Cn2nnc3c2CCc2c-3cc(Cn3ccnc3C)cc2C2CC2)ccc1F ... 76.8

Please examine the following record next.
Param request: recovery at 120 min, 5 μM | system P-glycoprotein (MDR1) (Homo sapiens) | item COc1cc(CN2CCc3c(cc(Cn4ccn(C)c4=N)cc3-c3ccc(F)cc3C)C2=O)cc(OC)c1 [C16, reference compound] 87.3

----------
# EXPERIMENT NOTES: In vivo intraperitoneal plasma:brain level (PBL) studies
# Design: species or system mice
# ASSAY CONDITIONS: CD-1, mouse, plasma; 10 mg/kg IP, male mice
PARAMETER MEASURED: Cmax (µM)
Give bare numbers, in µM.

Supply Cmax value. Item: COc1cc(CN2CCc3c(cc(Cn4ccn(C)c4=N)cc3-c3ccc(F)cc3C)C2=O)cc(OC)c1 [C16, reference compound] 14.2

----------
For each record, write down the corresponding pKi.
# TARGET OR TEST SYSTEM: WDR5 (Homo sapiens)
# EXPERIMENT NOTES: WDR5 TR-FRET binding assay (displacement of labeled WIN-site peptide)
# Set-up: human WDR5 residues Ser22-Cys334 were codon optimized for E. coli; made in house; host or cells: E. coli T7 Express lysY/Iq (New England Biolabs), pET27 plasmid
Give bare numbers, as −log10 of the molar value.

Solved cases below.
COc1cc(Cn2nnc3c2CCc2c-3cc(Cn3ccnc3C)cc2C2CC2)ccc1F [C3TD343] ... 8.23
COc1cc(Cn2nnc3c2CCc2c(-c4ccc(F)cc4C)cc(Cn4ccn(C)c4=N)cc2-3)cc(OC)c1 [C16-TZ] ... 9.43
COc1cc(CN2CCc3c(cc(Cn4ccn(C)c4=N)cc3-c3ccc(F)cc3C)C2=O)cc(OC)c1 [C16, reference compound] ... 10.52

Please examine the following record next.
Supply pKi value. Item: COc1cc(Cn2nnc3c2CCc2c(-c4cn(C)nc4C(F)(F)F)cc(Cn4ccnc4C)cc2-3)cc(OC)c1 [C3TD078] 10.52

----------
# EXPERIMENT NOTES: In vivo intraperitoneal plasma:brain level (PBL) studies
# Design: species or system mice
# ASSAY CONDITIONS: CD-1, mouse, plasma; 10 mg/kg IP, male mice; read-out: Tmax plasma
PARAMETER MEASURED: Tmax (min)
One number for each entry, in min.

Supply Tmax value. Item: COc1cc(CN2CCc3c(cc(Cn4ccn(C)c4=N)cc3-c3ccc(F)cc3C)C2=O)cc(OC)c1 [C16, reference compound] 30
